B1: 6NMW (parent)
chain: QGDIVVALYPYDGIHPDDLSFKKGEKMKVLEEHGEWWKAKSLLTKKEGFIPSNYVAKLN

- Variants of: B1
- TEST_SUMMARY: folding stability dG (cDNA display proteolysis); higher = more stable
- CONDITION_DESCRIPTION: PBS, room temperature
READOUT_NAME: folding stability dG
Kindly write the number and append the unit.

Previously resolved entries follow.
>>> obs_value("V6Y")
"3.49 kcal/mol"
>>> obs_value("E47N")
"1.81 kcal/mol"

Could I get folding stability dG for every one of these entries?
1. W37N
2. K28S
3. S52W
4. G2H
5. P10S
6. K38S
7. I4H

### Response
1: 1.19 kcal/mol; 2: 2.77 kcal/mol; 3: 3.1 kcal/mol; 4: 3.74 kcal/mol; 5: 4.61 kcal/mol; 6: 1.83 kcal/mol; 7: 1.74 kcal/mol
